- Test method notes: self-splicing fitness, log relative to wild type (ln ratio); higher = more splicing; Tetrahymena group I intron in knt gene, E. coli kanamycin selection, DiMSum; sequences stand for … in CUCUCU…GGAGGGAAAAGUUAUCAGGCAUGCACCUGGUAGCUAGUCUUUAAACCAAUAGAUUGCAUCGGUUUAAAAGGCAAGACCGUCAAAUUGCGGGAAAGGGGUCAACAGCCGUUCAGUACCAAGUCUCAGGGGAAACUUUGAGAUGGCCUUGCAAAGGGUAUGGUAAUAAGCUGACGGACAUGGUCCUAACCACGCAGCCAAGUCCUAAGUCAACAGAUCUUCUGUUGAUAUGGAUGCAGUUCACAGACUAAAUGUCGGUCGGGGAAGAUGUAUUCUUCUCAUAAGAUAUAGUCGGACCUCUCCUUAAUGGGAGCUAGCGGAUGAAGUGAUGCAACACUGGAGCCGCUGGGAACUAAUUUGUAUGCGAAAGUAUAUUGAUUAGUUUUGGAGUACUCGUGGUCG;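 note: selection with 25 µg/mL kanamycin versus none on LB agar overnight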
- Test context: 30 °C
Measured endpoint: self-splicing fitness (ln)
Respond numerically, and do not add a unit to the figure.

{"Biosequence": "UCCCAGCAAUAUUACGAAAU", "self-splicing fitness (ln)": -3.28}

Just so you know, measured self-splicing fitness (ln) for "CGCCAGCAAUAUUACGUGUU" came out at -3.08

// "GUACAGCAAUAUUACGUUAA" : self-splicing fitness (ln) value = -2.28

----------
- Test method notes: self-splicing fitness, log relative to wild type (ln ratio); higher = more splicing; Tetrahymena group I intron in knt gene, E. coli kanamycin selection, DiMSum; sequences stand for … in CUCUCU…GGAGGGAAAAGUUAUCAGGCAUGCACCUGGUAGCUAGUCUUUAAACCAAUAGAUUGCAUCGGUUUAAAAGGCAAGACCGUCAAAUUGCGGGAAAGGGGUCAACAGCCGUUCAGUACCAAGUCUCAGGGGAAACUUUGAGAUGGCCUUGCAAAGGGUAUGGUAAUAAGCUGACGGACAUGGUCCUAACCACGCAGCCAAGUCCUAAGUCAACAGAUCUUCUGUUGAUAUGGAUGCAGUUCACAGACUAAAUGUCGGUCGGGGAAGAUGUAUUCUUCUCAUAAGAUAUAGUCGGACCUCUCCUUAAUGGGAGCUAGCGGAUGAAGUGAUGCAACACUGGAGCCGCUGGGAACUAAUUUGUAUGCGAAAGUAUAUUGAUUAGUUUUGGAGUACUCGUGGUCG
- Test context: 37 °C
// reported self-splicing fitness (ln) for each item listed

Before answering, review these 5 worked examples.
{"Biosequence": "AUGGAGCAAUAUUACGCCUG", "self-splicing fitness (ln)": -2.3}
{"Biosequence": "AGUCAGCAAUAUUACGGGGC", "self-splicing fitness (ln)": -2.31}
{"Biosequence": "GGACAGCAAUAUUACGUGUC", "self-splicing fitness (ln)": -2.68}
{"Biosequence": "AAUGAGCAAUAUUACGCGAU", "self-splicing fitness (ln)": -0.995}
{"Biosequence": "UACUAGCAAUAUUACGAUCU", "self-splicing fitness (ln)": -0.847}

# sequence "CUAGAGCAAUAUUACGCGGA" ; its self-splicing fitness (ln) = -1.33

sequence "AGGAAGCAAUAUUACGCUAC" , self-splicing fitness (ln) observed: -2.99

The value of self-splicing fitness (ln) measured for the sequence "GAACAGCAAUAUUACGAAGG" turned out to be -3.26

In plain terms, "AGAAAGCAAUAUUACGUCCC" has a documented self-splicing fitness (ln) of 0.119
